biological target: Human immunodeficiency virus type 1 protease (Human immunodeficiency virus 1)
Listing of recorded IC50 by entry.
Reply numerically in µM, unit not repeated.

• CC[C@H](C)[C@H](NC(=O)[C@H](CCC(N)=O)NC(=O)[C@@H]1CCCN1C(=O)CCCCCC#CCCCCCC(=O)N[C@H](CO)C(=O)N[C@@H](C(=O)N[C@H](CC(C)C)C(=O)N[C@H](CC(N)=O)C(=O)N[C@H](Cc1ccccc1)C(=O)O)[C@H](C)O)C(=O)N[C@H](C(=O)N[C@@H](CC(C)C)C(=O)N[C@@H](Cc1c[nH]c2ccccc12)C(=O)O)[C@@H](C)O = 21

Inquiry: For the compound "CC[C@H](C)[C@H](NC(=O)[C@H](CCC(N)=O)NC(=O)[C@@H]1CCCN1C(=O)CCCCCCC/C=C/CCCCCCCC(=O)N[C@H](CO)C(=O)N[C@@H](C(=O)N[C@H](CC(C)C)C(=O)N[C@H](CC(N)=O)C(=O)N[C@H](Cc1ccccc1)C(=O)O)[C@H](C)O)C(=O)N[C@H](C(=O)N[C@@H](CC(C)C)C(=O)N[C@@H](Cc1c[nH]c2ccccc12)C(=O)O)[C@@H](C)O" , what IC50 is on record?
Reply text: 6.3

Inquiry: Record: "CC[C@H](C)[C@H](NC(=O)[C@H](CCC(N)=O)NC(=O)[C@@H]1CCCN1C(=O)CCCCCCCC#CCCCCCCCC(=O)N[C@H](CO)C(=O)N[C@@H](C(=O)N[C@H](CC(C)C)C(=O)N[C@H](CC(N)=O)C(=O)N[C@H](Cc1ccccc1)C(=O)O)[C@H](C)O)C(=O)N[C@H](C(=O)N[C@@H](CC(C)C)C(=O)N[C@@H](Cc1c[nH]c2ccccc12)C(=O)O)[C@@H](C)O"
Reply text: 7.2
